Data origin: patent US20250018014A1

Biological target: T1, full-length human Regnase-1 with a FLAG tag on the N-terminal side and a biotin ligase BirA recognition … (human, UniProt Q5D1E8 1-599, biotinylated at the BirA recognition sequence when required)
T1 sequence: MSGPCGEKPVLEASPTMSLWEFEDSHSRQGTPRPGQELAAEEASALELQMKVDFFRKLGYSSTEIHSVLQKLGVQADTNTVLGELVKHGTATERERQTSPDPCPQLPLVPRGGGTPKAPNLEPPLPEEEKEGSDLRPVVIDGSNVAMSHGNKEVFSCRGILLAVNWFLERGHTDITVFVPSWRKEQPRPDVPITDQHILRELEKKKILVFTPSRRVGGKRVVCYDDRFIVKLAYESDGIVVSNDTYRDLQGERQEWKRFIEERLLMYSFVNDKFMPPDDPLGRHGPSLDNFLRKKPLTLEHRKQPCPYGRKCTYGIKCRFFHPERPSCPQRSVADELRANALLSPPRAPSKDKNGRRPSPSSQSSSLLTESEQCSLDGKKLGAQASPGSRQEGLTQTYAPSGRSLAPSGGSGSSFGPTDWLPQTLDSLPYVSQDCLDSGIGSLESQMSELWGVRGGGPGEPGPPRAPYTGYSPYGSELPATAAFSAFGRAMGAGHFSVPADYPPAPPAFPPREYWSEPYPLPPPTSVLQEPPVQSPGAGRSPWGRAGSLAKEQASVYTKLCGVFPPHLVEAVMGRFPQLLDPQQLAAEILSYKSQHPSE
Experiment: cell-based or functional assay
Positions of bridges follow the written chain, without caps; N, C: chain ends. Non-standard residues stand in square brackets, D forms with d. *: point of attachment. NMeA = CN[C@@H](C)C(=O)O; Pyrrolidide = C1CCN(*)C1
Observation type: 50% inhibition concentration, Regnase-1 phosphorylation by TBK1 (AlphaScreen) (µM)
Give bare numbers, in µM.

Query string: Input [NMeA]YIWDFFGDLD-Pyrrolidide (lactam N-11) [PP4] , output reported 50% inhibition concentration, Regnase-1 phosphorylation by TBK1 (AlphaScreen).
Result string: 61.9
